target: human V1a receptor (Homo sapiens, UniProt P37288); test: Cellular in vitro assay for determining vasopressin receptor activity, V1a receptor cell line (photoprotein luminescence); settings: CHO cell line transfected with human V1a receptor; [Arg8]-vasopressin at EC50; compounds of the invention (Table 1A); read-out: IC50 hV1a
Sequence (P37288 whole entry): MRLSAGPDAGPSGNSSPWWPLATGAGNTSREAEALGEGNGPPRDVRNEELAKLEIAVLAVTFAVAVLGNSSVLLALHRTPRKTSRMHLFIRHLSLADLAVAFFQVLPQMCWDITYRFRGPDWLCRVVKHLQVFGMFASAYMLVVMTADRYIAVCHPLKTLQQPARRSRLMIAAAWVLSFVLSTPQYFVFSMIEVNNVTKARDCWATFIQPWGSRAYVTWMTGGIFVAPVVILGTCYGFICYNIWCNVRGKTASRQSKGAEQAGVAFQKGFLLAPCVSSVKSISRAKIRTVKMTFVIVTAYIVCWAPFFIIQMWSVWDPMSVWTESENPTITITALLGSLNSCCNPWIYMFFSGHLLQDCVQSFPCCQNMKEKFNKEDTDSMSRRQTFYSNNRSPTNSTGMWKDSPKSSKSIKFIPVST
property: IC50 (nM)
Respond with the bare value in nM.

Which measured IC50 value corresponds to Cc1ccccc1-n1nc(Cn2nc(-c3ccc(Cl)cc3)n(C[C@H](O)C(F)(F)F)c2=O)nc1C(C)O (single isomer, unassigned) [Example 71] ?
0.6

Which measured IC50 value corresponds to CC(O)c1nc(Cn2nc(-c3ccc(Cl)cc3)n(C[C@H](O)C(F)(F)F)c2=O)nn1-c1cccc(C(F)F)c1 (single isomer, unassigned) [Example 21] ?
57.8

Which measured IC50 value corresponds to CC(O)c1nc(Cn2nc(-c3ccc(Cl)cc3)n(C[C@H](O)C(F)(F)F)c2=O)nn1-c1cccc(OC(F)F)c1 (single isomer, unassigned) [Example 56] ?
2.4

Which measured IC50 value corresponds to O=c1n(Cc2nc(CO)n(-c3ccccc3C(F)(F)F)n2)nc(-c2ccc(Cl)cc2)n1C[C@H](O)C(F)(F)F ?
1.2

Which measured IC50 value corresponds to O=c1n(Cc2nc(CO)n(-c3cccc(F)c3)n2)nc(-c2ccc(Cl)cc2)n1C[C@H](O)C(F)(F)F ?
5

Which measured IC50 value corresponds to CC(O)c1nc(Cn2nc(-c3ccc(Cl)cc3)n(C[C@H](O)C(F)(F)F)c2=O)nn1-c1cccc(C(F)(F)F)c1 (mixture of isomers) [Example 22] ?
24.4

Continuing:
Which measured IC50 value corresponds to C[C@H](O)c1nc(Cn2nc(-c3ccc(Cl)cc3)n(C[C@H](O)C(F)(F)F)c2=O)nn1-c1cccc(Cl)c1 ?
3.6

Which measured IC50 value corresponds to CC(O)c1nc(Cn2nc(-c3ccc(Cl)cc3)n(C[C@H](O)C(F)(F)F)c2=O)nn1-c1cc(F)cc(Cl)c1 (mixture of isomers) [Example 13] ?
6.2

Which measured IC50 value corresponds to COc1ccc(F)cc1-n1nc(Cn2nc(-c3ccc(Cl)cc3)n(C[C@H](O)C(F)(F)F)c2=O)nc1C(C)O (single isomer, unassigned) [Example 38] ?
0.6

Which measured IC50 value corresponds to COc1ccccc1-n1nc(Cn2nc(-c3ccc(Cl)cc3)n(C[C@H](O)C(F)(F)F)c2=O)nc1C(C)O (single isomer, unassigned) [Example 11] ?
0.4

Which measured IC50 value corresponds to COc1ccc(F)cc1-n1nc(Cn2nc(-c3ccc(Cl)cc3)n(C[C@H](O)C(F)(F)F)c2=O)nc1C(C)O (mixture of isomers) [Example 37] ?
0.5

Which measured IC50 value corresponds to C[C@H](O)c1nc(Cn2nc(-c3ccc(Cl)cc3)n(C[C@H](O)C(F)(F)F)c2=O)nn1-c1cccc(F)c1 ?
2.5

Which measured IC50 value corresponds to CC(O)c1nc(Cn2nc(-c3ccc(Cl)cc3)n(C[C@H](O)C(F)(F)F)c2=O)nn1-c1cccc(Cl)c1 (mixture of isomers) ?
10.4

Which measured IC50 value corresponds to O=c1n(Cc2nc(CO)n(-c3cccc(Cl)c3)n2)nc(-c2ccc(Cl)cc2)n1C[C@H](O)C(F)(F)F ?
6

Which measured IC50 value corresponds to Cc1cccc(-n2nc(Cn3nc(-c4ccc(Cl)cc4)n(C[C@H](O)C(F)(F)F)c3=O)nc2C(C)O)c1 (single isomer, unassigned) [Example 29] ?
2.9

Which measured IC50 value corresponds to C[C@H](O)c1nc(Cn2nc(-c3ccc(Cl)cc3)n(C[C@H](O)C(F)(F)F)c2=O)nn1-c1ccccc1Cl ?
0.7

Which measured IC50 value corresponds to O=c1n(Cc2nc(CO)n(-c3cc(F)cc(Cl)c3)n2)nc(-c2ccc(Cl)cc2)n1C[C@H](O)C(F)(F)F ?
10.6

Which measured IC50 value corresponds to CC(O)c1nc(Cn2nc(-c3ccc(Cl)cc3)n(C[C@H](O)C(F)(F)F)c2=O)nn1-c1cc(Cl)cc(Cl)c1 (single isomer, unassigned) [Example 48] ?
3.2

Which measured IC50 value corresponds to CC(O)c1nc(Cn2nc(-c3ccc(Cl)cc3)n(C[C@H](O)C(F)(F)F)c2=O)nn1-c1cc(F)cc(F)c1 (single isomer, unassigned) [Example 26] ?
3.1

Which measured IC50 value corresponds to CCc1ccccc1-n1nc(Cn2nc(-c3ccc(Cl)cc3)n(C[C@H](O)C(F)(F)F)c2=O)nc1C(C)O (single isomer, unassigned) [Example 32] ?
0.9

Which measured IC50 value corresponds to CC(O)c1nc(Cn2nc(-c3ccc(Cl)cc3)n(C[C@H](O)C(F)(F)F)c2=O)nn1-c1cccc(F)c1F (mixture of isomers) [Example 64] ?
8.1

Which measured IC50 value corresponds to CC(O)c1nc(Cn2nc(-c3ccc(Cl)cc3)n(C[C@H](O)C(F)(F)F)c2=O)nn1-c1cc(F)cc(F)c1 (single isomer, unassigned) [Example 27] ?
43.7

Which measured IC50 value corresponds to CC(O)c1nc(Cn2nc(-c3ccc(Cl)cc3)n(C[C@H](O)C(F)(F)F)c2=O)nn1-c1cccc(C(F)F)c1 (single isomer, unassigned) [Example 20] ?
3.8

Which measured IC50 value corresponds to CC(O)c1nc(Cn2nc(-c3ccc(Cl)cc3)n(C[C@H](O)C(F)(F)F)c2=O)nn1-c1cccc(C(F)(F)F)c1 (single isomer, unassigned) [Example 23] ?
12.2

----------
# IC50 listing for each entry below
Molecular target: human V2 receptor (Homo sapiens)
Sequence (P30518 whole entry): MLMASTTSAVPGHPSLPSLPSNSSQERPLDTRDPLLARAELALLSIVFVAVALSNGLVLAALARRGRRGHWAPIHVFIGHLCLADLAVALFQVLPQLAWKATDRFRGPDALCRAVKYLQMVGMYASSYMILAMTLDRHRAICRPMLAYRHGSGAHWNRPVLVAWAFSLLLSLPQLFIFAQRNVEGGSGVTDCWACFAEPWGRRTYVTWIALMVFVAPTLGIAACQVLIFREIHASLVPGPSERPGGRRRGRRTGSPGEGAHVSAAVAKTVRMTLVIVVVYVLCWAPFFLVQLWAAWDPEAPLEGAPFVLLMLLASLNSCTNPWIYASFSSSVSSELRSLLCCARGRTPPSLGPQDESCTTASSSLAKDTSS
Experiment: Cellular in vitro assay for determining vasopressin receptor activity, V2 receptor cell line (CRE-luciferase)
Conditions: CHO cell line transfected with human V2 receptor; [Arg8]-vasopressin at EC50; compounds of the invention (Table 1A); read-out: IC50 hV2
Experimental: The identification of agonists and antagonists of the V1a and V2 vasopressin receptors from humans, rats and dogs as well as the quantification of the activity of the compounds of the invention is carried out using recombinant cell lines. […] The resulting vasopressin receptor cells react to stimulation of the recombinantly expressed V1a receptors by intracellular release of calcium ions, which can be quantified by the resulting photoprotein luminescence. […]
Respond with the bare value in nM.

Which measured IC50 value corresponds to Cc1ccccc1-n1nc(Cn2nc(-c3ccc(Cl)cc3)n(C[C@H](O)C(F)(F)F)c2=O)nc1C(C)O (single isomer, unassigned) [Example 70] ?
1.1

Which measured IC50 value corresponds to Cc1ccccc1-n1nc(Cn2nc(-c3ccc(Cl)cc3)n(C[C@H](O)C(F)(F)F)c2=O)nc1C(C)O (single isomer, unassigned) [Example 71] ?
2.1

With those in mind, consider the next compound.
Which measured IC50 value corresponds to CC(O)c1nc(Cn2nc(-c3ccc(Cl)cc3)n(C[C@H](O)C(F)(F)F)c2=O)nn1-c1cccc(F)c1F (single isomer, unassigned) [Example 65] ?
3.3

----------
# IC50 listing for each entry below
Molecular target: human V1a receptor (Homo sapiens)
Test: Cellular in vitro assay for determining vasopressin receptor activity, V1a receptor cell line (photoprotein luminescence)
Conditions: CHO cell line transfected with human V1a receptor; [Arg8]-vasopressin at EC50; compounds of the invention (Table 1A); read-out: IC50 hV1a
Procedure: The identification of agonists and antagonists of the V1a and V2 vasopressin receptors from humans, rats and dogs as well as the quantification of the activity of the compounds of the invention is carried out using recombinant cell lines. […] The resulting vasopressin receptor cells react to stimulation of the recombinantly expressed V1a receptors by intracellular release of calcium ions, which can be quantified by the resulting photoprotein luminescence. […]
Respond with the bare value in nM.

Reported IC50 for human V1a receptor (Homo sapiens), given CC(O)c1nc(Cn2nc(-c3ccc(Cl)cc3)n(C[C@H](O)C(F)(F)F)c2=O)nn1-c1cccc(Cl)c1Cl (single isomer, unassigned) [Example 63] ?
51.6

Reported IC50 for human V1a receptor (Homo sapiens), given Cc1cccc(-n2nc(Cn3nc(-c4ccc(Cl)cc4)n(C[C@H](O)C(F)(F)F)c3=O)nc2C(C)O)c1 (mixture of isomers) [Example 28] ?
1.3

Continuing:
Reported IC50 for human V1a receptor (Homo sapiens), given CC(O)c1nc(Cn2nc(-c3ccc(Cl)cc3)n(C[C@H](O)C(F)(F)F)c2=O)nn1-c1cccc(F)c1F (single isomer, unassigned) [Example 66] ?
4

Reported IC50 for human V1a receptor (Homo sapiens), given COc1ccccc1-n1nc(Cn2nc(-c3ccc(Cl)cc3)n(C[C@H](O)C(F)(F)F)c2=O)nc1C(C)O (single isomer, unassigned) [Example 12] ?
1.3

Reported IC50 for human V1a receptor (Homo sapiens), given CC(O)c1nc(Cn2nc(-c3ccc(Cl)cc3)n(C[C@H](O)C(F)(F)F)c2=O)nn1-c1cccc(Cl)c1F (mixture of isomers) [Example 52] ?
3.9

Reported IC50 for human V1a receptor (Homo sapiens), given C[C@@H](O)c1nc(Cn2nc(-c3ccc(Cl)cc3)n(C[C@H](O)C(F)(F)F)c2=O)nn1-c1cccc(F)c1 ?
12.5

Reported IC50 for human V1a receptor (Homo sapiens), given C[C@@H](O)c1nc(Cn2nc(-c3ccc(Cl)cc3)n(C[C@H](O)C(F)(F)F)c2=O)nn1-c1cccc(Cl)c1 ?
46.3

Reported IC50 for human V1a receptor (Homo sapiens), given CC(O)c1nc(Cn2nc(-c3ccc(Cl)cc3)n(C[C@H](O)C(F)(F)F)c2=O)nn1-c1ccc(F)c(Cl)c1 (single isomer, unassigned) [Example 44] ?
6.1

Recorded values, source patent US9771352B2.
